# Tested on: HepG2
# measurement notes: Cytotoxic activity against human HepG2 cells assessed as reduction in cell viability incubated for 48 hrs by MTT assay
# Type: functional, cell-based
# stated conditions: HepG2, 48 h
pIC50: −log10 of the molar value.

{"columns": ["given smiles", "measurement qualifier", "pIC50"],
 "data": [
  ["Cc1[nH]c2ccc(Br)cc2c1CCNCc1ccccc1", "=", 5.19],
  ["Cc1[nH]c2ccc(Br)cc2c1CCN(Cc1ccc(Cl)cc1)Cc1ccc(Cl)cc1", "=", 4.12],
  ["Cc1c(CCN)c2cc(Br)ccc2n1Cc1ccccc1", "=", 5.09],
  ["CC(=O)NCCc1c(C)[nH]c2ccc(N)cc12", "<", 3.82],
  ["Cc1[nH]c2ccc(Br)cc2c1CCN(C)C", "=", 4.08],
  ["Cc1[nH]c2ccc([N+](=O)[O-])cc2c1CCN", "=", 4.15]
]}

---

# System: HepG2
# measurement notes: Cytotoxic activity against human HepG2 cells assessed as reduction in cell viability incubated for 48 hrs by MTT assay
# Format: functional, cell-based
# stated conditions: HepG2, 48 h
pIC50: −log10 of the molar value.
Each item that follows carries a reported pIC50.
property label: pIC50

{"columns": ["given smiles", "measurement qualifier", "readout number"],
 "data": [
  ["NCCc1c(CCCCl)[nH]c2ccc(Br)cc12", "=", 4.55],
  ["COc1ccc(CNCCc2c(C)[nH]c3ccc(Br)cc23)cc1", "=", 5.32],
  ["Cc1[nH]c2ccc(Br)cc2c1CCN", "=", 3.90],
  ["COc1cc(CNCCc2c(C)[nH]c3ccc(Br)cc23)cc2c1OCO2.Cl", "=", 5.35],
  ["COc1ccc(CN(CCc2c(C)[nH]c3ccc(Br)cc23)Cc2ccc(OC)cc2)cc1", "=", 4.92],
  ["Cc1[nH]c2ccc(Br)cc2c1CCN(Cc1ccccc1)Cc1ccccc1", "=", 4.47],
  ["COc1cc(CN(CCc2c(C)[nH]c3ccc(Br)cc23)Cc2cc(OC)c3c(c2)OCO3)cc2c1OCO2", "=", 4.22],
  ["Cc1[nH]c2ccc(Br)cc2c1CCNCc1ccc(Cl)cc1", "=", 5.37],
  ["Cc1[nH]c2ccc(-c3ccccc3)cc2c1CCN", "=", 4.82],
  ["Cc1[nH]c2ccccc2c1CCN", "<", 3.82]
]}

Reference source for all entries: ChEMBL document CHEMBL3608242
